System: UO-31 renal
Experiment: NCI tumour cell line growth inhibition, 48 h
property: log10(TGI) (log10 of the value in µM)
Annotation: log10 of TGI, µM basis.

Examples with answers:
O=C1c2ccccc2-c2c1c1ccccc1c(=O)n2CCCNCCCCNCCCN1C(=O)c2ccccc2C2C(=O)c3ccccc3C21 (centres undefined) ... 0.27
C=C[C@]1(C)CCC2=C(CCC3C2(C)CCC[C@@]3(C)COC(C)=O)C1 (some centres undefined) ... 1.52
CC1CCC2(CC1)NC1=C(CC(C)CC1)C1=C2CC(C)CC1 (centres undefined) ... 1.71

Hello, please tell me recorded log10(TGI) for this one: `OCc1c[te]c(-c2ccccc2)c1`
1.90

Hello, please tell me recorded log10(TGI) for this one: `Cn1c(/C=C/[N+](=O)[O-])cc2ccccc21`
0.56

Hello, please tell me recorded log10(TGI) for this one: `O=C(Nc1ccccc1)c1cc(S(=O)(=O)Nc2nc3ccccc3o2)c(SCc2ccccc2)cc1Cl`
1.69

Hello, please tell me recorded log10(TGI) for this one: `CN1CCN(c2ccc3nc(-c4ccc5nc(-c6ccc(O)cc6)[nH]c5c4)[nH]c3c2)CC1`
2.97

Hello, please tell me recorded log10(TGI) for this one: `COC(=O)[C@H](Cc1ccc(OC(C)(C)C)cc1)N[C@H](C)C(=O)N[C@@H](Cc1ccccc1)C(=O)OCc1ccccc1`
1.64
